Reported IC50 values are given for each entry in this list.
Molecular target: P2X purinoceptor 3 (Homo sapiens, UniProt P56373)
Sequence (P56373 whole entry): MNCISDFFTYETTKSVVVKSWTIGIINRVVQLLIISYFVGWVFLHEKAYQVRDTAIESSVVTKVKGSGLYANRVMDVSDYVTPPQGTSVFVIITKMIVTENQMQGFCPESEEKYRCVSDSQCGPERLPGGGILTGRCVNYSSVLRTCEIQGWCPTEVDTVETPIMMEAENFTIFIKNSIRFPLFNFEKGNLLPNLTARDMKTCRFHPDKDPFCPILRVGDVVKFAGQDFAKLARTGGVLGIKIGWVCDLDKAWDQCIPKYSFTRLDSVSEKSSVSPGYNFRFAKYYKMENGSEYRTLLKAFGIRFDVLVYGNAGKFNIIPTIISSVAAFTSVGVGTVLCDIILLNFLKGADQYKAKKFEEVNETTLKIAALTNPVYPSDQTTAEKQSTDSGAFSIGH
Experiment: […] activity at human P2X3R expressing CHO cells assessed as reduction in intracellular Ca2+ influx pretreated with Fluo-4 for 1 hr followed by compound addition and further incubated for 30 mins in presence of ATP by multimode plate reader analysis
Format: cell-based

[[record]]
chemical_smiles = "Nc1ncnc2c1ncn2[C@@H]1O[C@H](COP(=O)(O)OP(=O)(O)OP(=O)(O)O)[C@@H](O)[C@@H]1O"
measurement = "> 100 µM"


Report IC50 for `O=P(O)(O)OP(=O)(O)OP(=O)(O)OC[C@H]1O[C@@H](n2cnc3c(NCc4ccccc4)ncnc32)[C@H](O)[C@@H]1O` please.
> 100 µM

Same thing, different compound: `CO[C@@H]1[C@H](O)[C@@H](COP(=O)(O)OP(=O)(O)OP(=O)(O)O)O[C@H]1n1cnc2c(N)ncnc21`
> 100 µM

---

Recorded IC50, one value per entry.
Molecular target: P2X purinoceptor 2 (Homo sapiens)
Sequence (Q9UBL9 whole entry): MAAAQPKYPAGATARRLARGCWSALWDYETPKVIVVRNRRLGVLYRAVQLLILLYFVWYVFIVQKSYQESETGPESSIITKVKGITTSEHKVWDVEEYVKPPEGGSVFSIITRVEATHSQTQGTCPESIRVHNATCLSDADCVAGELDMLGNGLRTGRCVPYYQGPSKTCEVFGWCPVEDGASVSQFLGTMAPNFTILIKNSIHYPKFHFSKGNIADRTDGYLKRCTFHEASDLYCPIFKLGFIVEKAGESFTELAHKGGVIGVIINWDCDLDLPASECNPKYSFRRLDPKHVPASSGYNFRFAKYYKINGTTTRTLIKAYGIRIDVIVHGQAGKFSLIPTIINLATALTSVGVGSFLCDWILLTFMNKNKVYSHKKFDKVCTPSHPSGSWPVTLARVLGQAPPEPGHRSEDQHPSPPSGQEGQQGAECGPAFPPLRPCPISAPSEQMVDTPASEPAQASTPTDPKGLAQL
Assay: […] activity at human P2X2R expressing CHO cells assessed as reduction in intracellular Ca2+ influx pretreated with Fluo-4 for 1 hr followed by compound addition and further incubated for 30 mins in presence of ATP by multimode plate reader analysis
Assay type: cell-based

[[record]]
chemical_smiles = "CCCCNc1ncnc2c1ncn2[C@@H]1O[C@H](COP(=O)(O)OP(=O)(O)OP(=O)(O)O)[C@@H](O)[C@H]1O"
experimental_system = "P2X purinoceptor 2 (Homo sapiens)"
measurement = "> 100 µM"

[[record]]
chemical_smiles = "O=c1[nH]c2cncnc2n1[C@@H]1O[C@H](COP(=O)(O)OP(=O)(O)OP(=O)(O)O)[C@@H](O)[C@H]1O"
experimental_system = "P2X purinoceptor 2 (Homo sapiens)"
measurement = "> 100 µM"

[[record]]
chemical_smiles = "O=P(O)(O)OP(=O)(O)OP(=O)(O)OC[C@H]1O[C@@H](n2cnc3c(Nc4ccccc4)ncnc32)[C@H](O)[C@@H]1O"
experimental_system = "P2X purinoceptor 2 (Homo sapiens)"
measurement = "0.00372 µM"

[[record]]
chemical_smiles = "Nc1ncnc2c1ncn2[C@@H]1O[C@H](COP(=O)(O)OP(=O)(O)OP(=O)(O)O)[C@@H](O)[C@H]1N"
experimental_system = "P2X purinoceptor 2 (Homo sapiens)"
measurement = "> 100 µM"


Note: attention shifts to another entry.
Requested read-out IC50, target or system P2X purinoceptor 2 (Homo sapiens), entry `O=P(O)(O)OP(=O)(O)OP(=O)(O)OC[C@H]1O[C@@H](n2cnc3c(S)ncnc32)[C@H](O)[C@@H]1O`
> 100 µM

---

Biological target: P2X purinoceptor 4 (Homo sapiens, UniProt Q99571)
Sequence (Q99571 whole entry): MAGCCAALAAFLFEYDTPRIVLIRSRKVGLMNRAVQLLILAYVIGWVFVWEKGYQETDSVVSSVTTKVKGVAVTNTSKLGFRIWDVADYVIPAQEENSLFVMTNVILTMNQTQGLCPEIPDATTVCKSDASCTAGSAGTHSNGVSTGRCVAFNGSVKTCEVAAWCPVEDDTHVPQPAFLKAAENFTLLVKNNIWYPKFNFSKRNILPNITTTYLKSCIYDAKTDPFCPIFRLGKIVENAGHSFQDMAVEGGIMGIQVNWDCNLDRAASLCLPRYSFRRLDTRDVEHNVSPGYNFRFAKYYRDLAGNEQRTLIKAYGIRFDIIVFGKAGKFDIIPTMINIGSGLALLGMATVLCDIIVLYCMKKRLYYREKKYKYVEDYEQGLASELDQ
Assay: […] activity at human P2X4R expressing HEK293 cells assessed as reduction in intracellular Ca2+ influx pretreated with Fluo-4 for 1 hr followed by compound addition and further incubated for 30 mins in presence of ATP by multimode plate reader analysis
Format: cell-based
Reported IC50 values for a set of molecules
# value in µM; strip the unit string

[[record]]
chemical_smiles = "Nc1ncnc2c1ncn2[C@@H]1O[C@H](COP(=O)(O)OP(=O)(O)OP(=O)(O)O)[C@@H](O)[C@H]1F"
measurement = 2.75


# query: IC50 | item `Nc1ncnc2c1ncn2[C@@H]1O[C@H](COP(=O)(O)OP(=O)(O)OP(=O)(O)O)[C@@H](O)[C@@H]1O` | system: P2X purinoceptor 4 (Homo sapiens, UniProt Q99571)
10.5
